test.target: Broad substrate specificity ATP-binding cassette transporter ABCG2 (Homo sapiens)
Sequence (Q9UNQ0 whole entry): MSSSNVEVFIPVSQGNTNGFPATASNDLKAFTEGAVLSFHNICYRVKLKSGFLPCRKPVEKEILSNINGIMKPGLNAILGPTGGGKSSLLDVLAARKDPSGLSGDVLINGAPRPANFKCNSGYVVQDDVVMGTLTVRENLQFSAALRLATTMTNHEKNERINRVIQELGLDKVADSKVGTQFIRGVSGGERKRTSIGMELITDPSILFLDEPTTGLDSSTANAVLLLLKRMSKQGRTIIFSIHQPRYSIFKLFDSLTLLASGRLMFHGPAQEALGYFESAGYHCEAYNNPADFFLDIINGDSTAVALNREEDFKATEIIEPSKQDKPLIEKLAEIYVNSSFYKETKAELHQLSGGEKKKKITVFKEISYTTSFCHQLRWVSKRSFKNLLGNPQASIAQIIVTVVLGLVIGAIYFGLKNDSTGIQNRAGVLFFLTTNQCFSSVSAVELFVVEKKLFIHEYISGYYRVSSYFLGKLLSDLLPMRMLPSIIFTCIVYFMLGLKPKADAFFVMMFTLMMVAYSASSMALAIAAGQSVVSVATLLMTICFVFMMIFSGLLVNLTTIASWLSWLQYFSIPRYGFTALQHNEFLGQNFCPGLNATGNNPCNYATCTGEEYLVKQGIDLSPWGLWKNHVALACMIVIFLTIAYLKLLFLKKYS
experiment: Inhibition of human ABCG2-mediated ATPase activity preincubated for 2 mins followed by ATP addition and measured after 20 mins by colorimetric assay
This listing pairs compounds with measured pIC50.
In plain terms, pIC50 is the concentration in mol/L turned into minus its base-10 logarithm.

Below, each entry is followed by its recorded pIC50 result.
- compound: "CNC(=O)C12CC1[C@@H](n1cnc3c(NCc4cccc(-n5cc(-c6ccc(F)c(F)c6)nn5)c4)nc(C#Cc4ccc(F)cc4)nc31)[C@H](O)[C@@H]2O (single isomer, unassigned)"
  test.target: "Broad substrate specificity ATP-binding cassette transporter ABCG2 (Homo sapiens)"
  endpoint.value: 5.59
- compound: "CNC(=O)C12CC1[C@@H](n1cnc3c(NCc4cccc(-n5cc(-c6ccc(F)c(F)c6)nn5)c4)nc(C#Cc4ccc(F)c(F)c4)nc31)[C@H](O)[C@@H]2O (single isomer, unassigned)"
  test.target: "Broad substrate specificity ATP-binding cassette transporter ABCG2 (Homo sapiens)"
  endpoint.value: 5.59

Next:
Provide pIC50, recorded with Broad substrate specificity ATP-binding cassette transporter ABCG2 (Homo sapiens), of CNC(=O)C12CC1[C@@H](n1cnc3c(NCc4cccc(-n5cc(-c6ccc(F)c(F)c6)nn5)c4)nc(C#Cc4cc(F)c(F)c(F)c4)nc31)[C@H](O)[C@@H]2O (single isomer, unassigned)
5.40

###

test.target: ABCG2 (Homo sapiens, UniProt Q9UNQ0)
experiment: Activation of human ABCG2-mediated ATPase activity preincubated for 2 mins followed by ATP addition at 2.5 M and measured after 20 mins by colorimetric assay relative to control
Design: dose or concentration left out as unconfirmed
reported.conditions: read-out: Activity
This listing pairs compounds with measured activity at 20 min.
Provide the reading as a plain figure in %.

Below, each entry is followed by its recorded activity at 20 min result.
- compound: "O[C@@H]1[C@H](O)C2CC2[C@H]1n1cnc2c(NCc3cccc(Cl)c3)nc(C#Cc3ccc(F)c(F)c3)nc21 (single isomer, unassigned)"
  endpoint.value: 75.2
- compound: "CNC(=O)[C@H]1O[C@@H](n2cnc3c(NC)nc(C#Cc4ccc(Cl)s4)nc32)[C@H](O)[C@@H]1O"
  endpoint.value: 112
- compound: "Fc1ccc(C#CC2=NC3=NC=NC3C(NCc3cccc(Cl)c3)=N2)cc1F (stereo unspecified)"
  endpoint.value: 165
- compound: "CNc1nc(C#Cc2ccc(Cl)s2)nc2c1ncn2[C@@H]1C2CC2(C(=O)OC)[C@@H](O)[C@H]1O (single isomer, unassigned)"
  endpoint.value: 89.1
- compound: "CNC(=O)C12CC1[C@@H](n1cnc3c(NC)nc(C#Cc4ccc(Cl)s4)nc31)[C@H](O)[C@@H]2O (single isomer, unassigned)"
  endpoint.value: 59.2

Look up and report measured activity at 20 min for this entry: CNC(=O)C12CC1[C@@H](n1cnc3c(NCc4cccc(Cl)c4)nc(C#Cc4ccc(Cl)s4)nc31)[C@H](O)[C@@H]2O (single isomer, unassigned)
97.5

###

test.target: ABCG2 (Homo sapiens)
experiment: Activation of human ABCG2-mediated ATPase activity preincubated for 2 mins followed by ATP addition at 100 nM and measured after 20 mins by colorimetric assay relative to control
reported.conditions: read-out: Activity
endpoint.name: activity at 20 min, 0.1 µM (%)
Provide the reading as a plain figure in %.

Below, each entry is followed by its recorded activity at 20 min, 0.1 µM result.
- compound: "COc1cc(CCNC2=NC(C#Cc3ccc(Cl)s3)=NC3=NC=NC32)ccc1O (centres undefined)"
  u: "%"
  activity at 20 min, 0.1 µM: 111
- compound: "CCOC(=O)C12CC1[C@@H](n1ccc3c(NCCCc4ccc(OC)c(O)c4)nc(C#Cc4ccccc4)nc31)[C@H](O)[C@@H]2O (single isomer, unassigned)"
  u: "%"
  activity at 20 min, 0.1 µM: 55.9
- compound: "Cn1cnc2c(NCCc3ccccc3)nc(C#Cc3ccc(Cl)s3)nc21"
  u: "%"
  activity at 20 min, 0.1 µM: 92.1

Next:
Look up and report measured activity at 20 min, 0.1 µM for this entry: CCOC(=O)C12CC1[C@@H](n1ccc3c(NCCCc4ccccc4)nc(C#Cc4ccc(Cl)s4)nc31)[C@H](O)[C@@H]2O (single isomer, unassigned)
45.5
